Source listed as patent US10638779B2.

- measurementDescription: Assessment of hydrolysis rate at pH 3.0 (acetaldehyde release, UV/Vis 276 nm)
- Format: physicochemical
- conditionDescription: pH 3.0 citrate buffer, stirring at 200 rpm, first order release of acetaldehyde; measured for this work; read-out: Half life (s) at pH 3.0 (converted)
- Experimental: Assessment of Hydrolysis Rate at pH 3.0 Instant beverage applications require rapid hydrolysis of the precursor molecules in order to rapidly release acetaldehyde. […] A pH 3.0 buffer solution was prepared by adding 16.43 g citric acid (CAS 77-92-9) and 4.26 g disodium citrate (CAS 144-33-2) to 1 L of deionized water. […] The concentration of acetaldehyde in solution was monitored as a function of time using a UV/Vis spectrometer probe which measured absorbance at 276 nm every 1 second. […]
propertyName: half-life (s)
Expressed in s, but write only the number.

> print(dat)
                                   compound  propertyname  resultvalue
1  CCOC(C)OC(=O)CCC(=O)OC(C)OCC (centres unmarked) [Example 1, Bis(1-ethoxyethyl) succinate]     half-life           96

As a next step, examine the compound that follows.
Form field: reported half-life of CCOC(C)OC(=O)CCCCC(=O)OC(C)OCC (centres unmarked) [Example 2, Bis(1-ethoxyethyl) adipate]
185
